Target: T1, Recombinant Human OX40L Protein, His Tag (Acro Cat. IL3-H52H4) (human, UniProt P23510 51-183)
T1 construct: Bought His-tagged protein; also called hOX40L
T1 sequence: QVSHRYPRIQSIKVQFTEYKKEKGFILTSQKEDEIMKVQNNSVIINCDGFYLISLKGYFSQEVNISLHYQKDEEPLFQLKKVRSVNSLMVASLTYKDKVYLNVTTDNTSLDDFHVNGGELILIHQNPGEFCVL
Assay: SPR (Biacore 8K), antibody captured, human OX40L injected, 1:1 fit
kon values, listed per item
ENDPOINT_NAME: kon (M⁻¹ s⁻¹)

binder="anti-hOX40L antibody clone 128 (antibody, human IgG1, kappa, L234A L235A, V domains shown) VH: EVQLVESGGGLVTPGGSLRISCAASGFTFNNAWMTWVRQAPGKGLEWVGRIKSISYGGTTDSAAPVKGRFTISRDDSENTLYLQMSSLKTEDTAVYYCSTGSVWKYGGSLDFWGQGTLVTVSS VL: DIQMTQSPSSLSASVGDRVTFTCRASQGISRFLNWYQQKPGKAPKLLIYAASTLQNGVPSRFSGSGSGTDFTLTISSLQPEDFATYFCQQTYSTPLTFGGGTKVEIYR" test_value=112000
binder="anti-hOX40L antibody clone 130 (antibody, human IgG1, kappa, L234A L235A, V domains shown) VH: EVQLVESGGGLVKPGGSLRLSCAASGFTFSYAWMSWVRQAPGRGLEWVGRIKSETDGGTTDYAAPVKGRFTISRDHSENTLFLQMNSLKTEDTAVYYCTTGSSWNVYFFDFWGQGTLVTVSS VL: DIQMTQSPSSLSASVGDSVTITCRASQSISNYLNWYHQKPGKAPKLLIYAAYRLQTGVPSRFSGSGSGTDFTLTISSLQPEDFATYYCQQSYSSPLTFGGGTKVEIKR" test_value=131000
binder="anti-hOX40L antibody clone 118 (antibody, human IgG1, kappa, L234A L235A, V domains shown) VH: EVQVVESGGGLIQPGGSLRISCAASGFPVSSNYMSWVRQAPGKGLDWVSIIYSRDSTHYADSVKGRFTMSRDNSKNTVYLQMNSLRAEDTAVYYCAGTLTYYYGAGSDYWGQGTLVTVSS VL: DIQMTQSPSSLSASVGDRVTITCRASQGIRNDLGWYQQKPGKAPKRLIYAASSLQSGVPSRFSGSGSGTEFTLTISSLQPEDFATYYCLQHNSYPWSFGQGTKVEIKR" test_value=155000
binder="anti-hOX40L antibody clone 122 (antibody, human IgG1, kappa, L234A L235A, V domains shown) VH: EVQLVESGGGLVQPGGSLRLSCAASGFTFSNYWMHWVRQAPGKGLVWVSRINSDGISTRYADSVKGRFTISRDNAKNTLYLQMKSLRAEDTAVYYCVRDFQLELPDYWGQGTLVTVSS VL: DIQMTQSPSSLSASVGDRVTITCRASQGIRDDLAWYQQKAGKAPKRLIFAASSLQSGVPSRFSGSGSGTEFTLTISGLQPEDFANYYCLQHKSNPFTFGQGTKLEIKR" test_value=151000
